- system_under_test: T1, GLD-1 KH-QUA2 (Caenorhabditis elegans, UniProt Q17339 195-336)
- T1 sequence: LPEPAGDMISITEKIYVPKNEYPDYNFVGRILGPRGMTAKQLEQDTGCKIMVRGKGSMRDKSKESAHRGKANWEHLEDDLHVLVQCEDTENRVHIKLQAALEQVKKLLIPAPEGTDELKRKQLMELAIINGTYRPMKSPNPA
- test_name: ITC
assay_readout: Kd (nM)
All answers are understood in nM, so give the number only.

Task item: Param item = CUACUCAUAU (ssRNA) [tra-2 TGE strong site] ; retrieve measured Kd.
Reply: 61
